target-system: dCK (Homo sapiens, UniProt P27707, C45S/C59S/C9S/S74E)
Construct: inferred from HisTrap purification with imidazole elution; made in house; host or cells: Escherichia coli BL21 pRIL
Sequence (P27707 whole entry C9S/C45S/C59S/S74E): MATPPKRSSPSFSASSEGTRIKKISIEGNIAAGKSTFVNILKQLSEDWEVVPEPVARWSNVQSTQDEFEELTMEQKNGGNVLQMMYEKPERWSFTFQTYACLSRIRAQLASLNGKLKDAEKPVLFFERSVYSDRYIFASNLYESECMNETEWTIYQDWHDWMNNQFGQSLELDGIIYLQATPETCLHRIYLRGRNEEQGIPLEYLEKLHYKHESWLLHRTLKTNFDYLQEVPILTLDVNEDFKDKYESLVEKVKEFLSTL
procedure-text: Affinity assay: Thermal Shift Assay (TSA), dCK thermal stabilization
Type: binding
details: dCK protein (C9S, C45S, C59S, S74E); 5 sM of protein, 50 sM of compound, 2% DMSO; mean ± SD
From the text: dCK protein contained three solvent exposed cysteines mutated to serines in order to generate better quality crystals (C9S, C45S, C59S) and a serine mutated to glutamic acid (S74E). The S74E mutation mimics the phosphorylated state of this serine, which favors the open conformation of the enzyme, making it competent for nucleoside binding to evaluate the binding affinity with compounds. BL21 pRIL Escherichia Coli cells were transformed with dCK-plasmid. […]
Property: AFFINITY ASSAY +ΔTm (°); scope: individual molecules

Guide cases for AFFINITY ASSAY +ΔTm (°), answers given:
{"molecule": "CCCN(c1nc(-c2nc(N)cc(N)n2)cs1)c1cc(-c2ccc(S(=O)(=O)N3CCN(C)CC3)nc2)ccc1C [OR0627]", "test-value": "17.5 ± 0.4 °"}
{"molecule": "CCCN(c1nc(-c2nc(N)cc(N)n2)cs1)c1cc(-c2cnc(S(=O)(=O)N3CCN(C)CC3)cc2C)ccc1C [OR0652]", "test-value": "19.2 ± 0.1 °"}
{"molecule": "CCCN(c1nc(-c2nc(N)cc(N)n2)cs1)c1cc(-c2ccc(S(=O)(=O)N3CCN(C)CC3)nc2C)ccc1C [OR0653]", "test-value": "21.6 ± 0.4 °"}
{"molecule": "CCCN(c1nc(-c2nc(N)cc(N)n2)cs1)c1cc(-c2cnc(O)cc2C(F)(F)F)ccc1C [OR0655]", "test-value": "19.0 ± 0.0 °"}
{"molecule": "CCCN(c1nc(-c2nc(N)cc(N)n2)cs1)c1cc(-c2ccc(S(=O)(=O)N3CCN(C)CC3)cc2)ccc1C [OR0607]", "test-value": "19.2 ± 0.6 °"}

# molecule CCCN(c1nc(-c2nc(N)cc(N)n2)cs1)c1cc(-c2ccc(S(=O)(=O)N3CCNCC3)nc2C(F)(F)F)ccc1C [OR0658] ; its AFFINITY ASSAY +ΔTm (°) = 22.4 ± 0.1 °

# molecule CCCN(c1nc(-c2nc(N)cc(N)n2)cs1)c1cc(Br)ccc1C [OR0652-1] ; its AFFINITY ASSAY +ΔTm (°) = 13.9 ± 0.2 °

# molecule Cc1ccc(Br)cc1N(CC(C)C)c1nc(-c2nc(N)cc(N)n2)cs1 [OR0637-1] ; its AFFINITY ASSAY +ΔTm (°) = 14.9 ± 0.2 °

# molecule CCCN(c1nc(-c2nccc(N)n2)cs1)c1cc(-c2ccc(OCC(=O)N3CCN(C)CC3)cc2)ccc1C [OR0597] ; its AFFINITY ASSAY +ΔTm (°) = 17.1 ± 0.1 °

# molecule Cc1ccc(-n2cc(CNS(C)(=O)=O)nn2)cc1N(CC(C)C)c1nc(-c2nc(N)cc(N)n2)cs1 [OR0609] ; its AFFINITY ASSAY +ΔTm (°) = 13.5 ± 0.7 °

# molecule CCCN(c1nc(-c2nc(N)cc(N)n2)cs1)c1cc(-c2cnc(OC)cc2C(F)(F)F)ccc1C [OR0654] ; its AFFINITY ASSAY +ΔTm (°) = 18.3 ± 0.4 °

# molecule CCCN(c1nc(-c2nc(N)cc(N)n2)cs1)c1cc(-c2ccc(S(=O)(=O)N3CCN(CC(=O)O)CC3)cc2)ccc1C [OR0649] ; its AFFINITY ASSAY +ΔTm (°) = 17.6 ± 1.3 °
